Reference source: the supplement of paper PMC11061612

Hi there, I'd appreciate the recorded Bliss excess for every entry that follows.
- System: SW13 (Other Solid Carcinomas);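 also: after 72 h of two-drug dosing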
- Test Name: Bliss excess, mean over the matrix (fraction); higher = more synergy
Field format: numeric only.

Ask: Any idea what Bliss excess was measured for Cc1c2c(nn1C)CSCc1cc(n(C)n1)CSc1cc(c3ccccc3c1)OCCCc1c(C(=O)O)n(C)c3c-2c(Cl)ccc13 [AZD5991] + CC(=O)O[C@H]1C(=O)[C@@]2(C)[C@H]([C@H](OC(=O)c3ccccc3)[C@]3(O)C[C@H](OC(=O)[C@H](O)[C@@H](NC(=O)c4ccccc4)c4ccccc4)C(C)=C1C3(C)C)[C@]1(OC(C)=O)CO[C@@H]1C[C@@H]2O [Paclitaxel] (first compound max 1 µM, 7x7, partner max 3 µM) ?
Reply: 0.0376

Ask: Queued: O=C(c1cc(Cc2n[nH]c(=O)c3ccccc23)ccc1F)N1CCN(C(=O)C2CC2)CC1 [Olaparib] + COc1nnc2ccc(N3CCC(c4ccc(OCCN5CCN(C)C(=O)[C@H]5C)cc4)CC3)nn12 [AZD5153] (first compound max 10 µM, 7x7, partner max 1 µM)
Reply: -0.0183

Ask: Queued: N#Cc1cnc(Nc2cc(NC[C@H]3CNCCO3)c(C(F)(F)F)cn2)cn1 [SRA737] + CCc1c2c(nc3ccc(O)cc13)-c1cc3c(c(=O)n1C2)COC(=O)[C@]3(O)CC [SN-38] (first compound max 10 µM, 7x7, partner max 0.3 µM)
Reply: -0.0192

Ask: Queued: Cc1cc2ncnn2cc1Nc1ncc2c(n1)n(C1CCOCC1)c(=O)n2C [AZD7648] + COc1cc([C@@H]2c3cc4c(cc3[C@@H](O[C@@H]3O[C@@H]5CO[C@@H](C)O[C@H]5[C@H](O)[C@H]3O)[C@H]3COC(=O)[C@H]23)OCO4)cc(OC)c1O [Etoposide] (first compound max 10 µM, 7x7, partner max 10 µM)
Reply: 0.0808

Ask: Queued: COc1cc2ncnc(Nc3ccc(F)c(Cl)c3)c2cc1OCCCN1CCOCC1 [Gefitinib] + CC(C)n1c(=O)n(C)c2cnc3cc(F)c(-c4ccc(OCCCN5CCCCC5)nc4)cc3c21 [AZD1390] (first compound max 10 µM, 7x7, partner max 0.3 µM)
Reply: -0.0233

Ask: Queued: CN(CCO)CC[C@H](CSc1ccccc1)Nc1ccc(S(=O)(=O)NC(=O)c2ccc(N3CCC([C@@H](O)c4ccccc4-c4ccc(Cl)cc4)CC3)cc2)cc1S(=O)(=O)C(F)(F)F [AZD4320] + Cc1cc2ncnn2cc1Nc1ncc2c(n1)n(C1CCOCC1)c(=O)n2C [AZD7648] (first compound max 1 µM, 7x7, partner max 10 µM)
Reply: -0.0371

Ask: Queued: Cc1cc2ncnn2cc1Nc1ncc2c(n1)n(C1CCOCC1)c(=O)n2C [AZD7648] + CCN(CCO)CCCOc1ccc2c(Nc3cc(CC(=O)Nc4cccc(F)c4)[nH]n3)ncnc2c1 [AZD2811] (first compound max 10 µM, 7x7, partner max 1 µM)
Reply: 0.0406

Ask: Queued: Cn1cnc2c(F)c(Nc3ccc(Br)cc3Cl)c(C(=O)NOCCO)cc21 [Selumetinib] + CC(C)n1c(=O)n(C)c2cnc3cc(F)c(-c4ccc(OCCCN5CCCCC5)nc4)cc3c21 [AZD1390] (first compound max 10 µM, 7x7, partner max 0.3 µM)
Reply: 0.0129

Ask: Queued: CN(CCO)CC[C@H](CSc1ccccc1)Nc1ccc(S(=O)(=O)NC(=O)c2ccc(N3CCC([C@@H](O)c4ccccc4-c4ccc(Cl)cc4)CC3)cc2)cc1S(=O)(=O)C(F)(F)F [AZD4320] + CCN(CCO)CCCOc1ccc2c(Nc3cc(CC(=O)Nc4cccc(F)c4)[nH]n3)ncnc2c1 [AZD2811] (first compound max 1 µM, 7x7, partner max 1 µM)
Reply: -0.0152

Ask: Queued: CN(CCO)CC[C@H](CSc1ccccc1)Nc1ccc(S(=O)(=O)NC(=O)c2ccc(N3CCC([C@@H](O)c4ccccc4-c4ccc(Cl)cc4)CC3)cc2)cc1S(=O)(=O)C(F)(F)F [AZD4320] + CS(=O)(=O)CCNCc1ccc(-c2ccc3ncnc(Nc4ccc(OCc5cccc(F)c5)c(Cl)c4)c3c2)o1 [Lapatinib] (first compound max 1 µM, 7x7, partner max 10 µM)
Reply: 0.0051
